- Test system: NCI-H226
- TEST: NCI screening panel, NCI-H226 (Non-Small Cell Lung Cancer)
- Format: cell-based, human
This section presents compounds with their documented Log10GI50 values.

COMPOUND_STRING: CC(C)C[C@H](NC(=O)[C@H](COC(F)F)NC(=O)CN1CCOCC1)C(=O)N[C@@H](COC(F)F)C(=O)N[C@@H](Cc1ccccc1)C(=O)[C@@]1(C)CO1
TESTED_ON: NCI-H226
READOUT_QUALIFIER: =
Log10GI50: −7.66

COMPOUND_STRING: CC(C)C[C@H](NC(=O)[C@H](COC(F)F)NC(=O)[C@H](COC(F)F)NC(=O)[C@H](CCc1ccccc1)NC(=O)CN1CCOCC1)C(=O)[C@@]1(C)CO1
TESTED_ON: NCI-H226
READOUT_QUALIFIER: =
Log10GI50: −7.75

COMPOUND_STRING: CC(C)C[C@H](NC(=O)[C@H](Cc1ccccc1)NC(=O)[C@H](COC(F)F)NC(=O)[C@H](COC(F)F)NC(=O)CN1CCOCC1)C(=O)[C@@]1(C)CO1
TESTED_ON: NCI-H226
READOUT_QUALIFIER: =
Log10GI50: −7.77

COMPOUND_STRING: CC(C)C[C@H](NC(=O)[C@H](COC(F)F)NC(=O)[C@H](COC(F)F)NC(=O)[C@H](COC(F)F)NC(=O)CN1CCOCC1)C(=O)[C@@]1(C)CO1
TESTED_ON: NCI-H226
READOUT_QUALIFIER: =
Log10GI50: −7.15

COMPOUND_STRING: CC(C)C[C@H](NC(=O)[C@H](COC(F)F)NC(=O)CN1CCOCC1)C(=O)N[C@@H](Cc1ccccc1)C(=O)N[C@@H](Cc1ccccc1)C(=O)[C@@]1(C)CO1
TESTED_ON: NCI-H226
READOUT_QUALIFIER: <
Log10GI50: −8.00

COMPOUND_STRING: CC(C)C[C@H](NC(=O)[C@H](COC(F)F)NC(=O)CN1CCOCC1)C(=O)N[C@@H](Cc1ccccc1)C(=O)N[C@@H](CC(C)C)C(=O)[C@@]1(C)CO1
TESTED_ON: NCI-H226
READOUT_QUALIFIER: =
Log10GI50: −7.83

COMPOUND_STRING: CC(C)C[C@H](NC(=O)[C@H](COC(F)F)NC(=O)CN1CCOCC1)C(=O)N[C@@H](COC(F)F)C(=O)N[C@@H](CC(C)C)C(=O)[C@@]1(C)CO1
TESTED_ON: NCI-H226
READOUT_QUALIFIER: =
Log10GI50: −7.73
